# viability, T/C listing for each entry below
tested on: 695427-040-R-J1-PDC complex spheroid viability; experiment: Anticancer human tumor 695427-040-R-J1-PDC patient-derived colon adenocarcinoma cell line growth inhibition [POLQ]; conditions: second compound 3.16 µM; first compound 0.0316 µM; stronger effect = lower value
property-label: viability, T/C (%)

molecule="C=CCn1c(=O)c2cnc(Nc3ccc(N4CCN(C)CC4)cc3)nc2n1-c1cccc(C(C)(C)O)n1 + Cc1cccc(N(C)C(=O)C2C(O)CCN2c2nc(C)cc(C(F)(F)F)c2C#N)c1" reported_value=88.9
molecule="C#Cc1c(F)ccc2cc(O)cc(-c3ncc4c(N5CC6CCC(C5)N6)nc(OCC56CCCN5CC(F)C6)nc4c3F)c12 (stereo not given) + COC1C(OC(N)=O)C(O)C(Oc2ccc3c(O)c(NC(=O)c4ccc(O)c(CC=C(C)C)c4)c(=O)oc3c2C)OC1(C)C" reported_value=105
molecule="COc1cc2cc(C(=O)CCC(=O)O)sc2cc1OC + COC1C(OC(N)=O)C(O)C(Oc2ccc3c(O)c(NC(=O)c4ccc(O)c(CC=C(C)C)c4)c(=O)oc3c2C)OC1(C)C" reported_value=102
molecule="COc1cccc(OCCCN)c1-c1cc(Nc2cnc(C#N)cn2)n[nH]1 + COC1C(OC(N)=O)C(O)C(Oc2ccc3c(O)c(NC(=O)c4ccc(O)c(CC=C(C)C)c4)c(=O)oc3c2C)OC1(C)C" reported_value=86.3
molecule="CC1COCCN1c1cc(C2(O)CC3CCC(C2)O3)c2cnn(-c3ccn[nH]3)c2n1 (stereo not given) + Nc1ccc(C#CCN(C(=O)Cc2ncc(C(F)(F)F)cc2C(F)(F)F)c2ccc(F)cc2)nn1" reported_value=104
molecule="O=C(Nc1ccc(O)c(NS(=O)(=O)c2ccc(F)cc2)c1)c1ccc(-c2ccccc2)cc1 + COC1C(OC(N)=O)C(O)C(Oc2ccc3c(O)c(NC(=O)c4ccc(O)c(CC=C(C)C)c4)c(=O)oc3c2C)OC1(C)C" reported_value=108
molecule="O=c1[nH]cc(F)c(=O)[nH]1 + Cc1cccc(N(C)C(=O)C2C(O)CCN2c2nc(C)cc(C(F)(F)F)c2C#N)c1" reported_value=96
molecule="CCc1c2c(nc3ccc(O)cc13)-c1cc3c(c(=O)n1C2)COC(=O)[C@]3(O)CC + Nc1ccc(C#CCN(C(=O)Cc2ncc(C(F)(F)F)cc2C(F)(F)F)c2ccc(F)cc2)nn1" reported_value=97.9
molecule="CC1COCCN1c1cc(C2(S(C)(=N)=O)CC2)nc(-c2ccnc3[nH]ccc23)n1 (stereo not given) + COC1C(OC(N)=O)C(O)C(Oc2ccc3c(O)c(NC(=O)c4ccc(O)c(CC=C(C)C)c4)c(=O)oc3c2C)OC1(C)C" reported_value=94.1
molecule="CC(C)n1c(=O)n(C)c2cnc3cc(F)c(-c4ccc(OCCCN5CCCCC5)nc4)cc3c21 + COC1C(OC(N)=O)C(O)C(Oc2ccc3c(O)c(NC(=O)c4ccc(O)c(CC=C(C)C)c4)c(=O)oc3c2C)OC1(C)C" reported_value=106

---

# viability, T/C listing for each entry below
Test system: 695427-040-R-J1-PDC complex spheroid viability
Experiment: Anticancer human tumor 695427-040-R-J1-PDC cell line growth inhibition [POLQ];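 note: spheroids exposed to compounds for seven days; 100% = DMSO vehicle control viability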
Settings: second compound 0.316 µM; first compound 1 µM; stronger effect = lower value
Description: Multicellular complex tumor spheroid response to Polymerase (POL) inhibitors (novobiocin, ART-558, RP6685) in combination with a variety of drugs and investigational agents in selected tumor cell lines The POL inhibitors (novobiocin, ART-558, and RP6685) were evaluated both individually and in combination with standard of care and investigational anticancer small molecules within a complex spheroid model of solid tumors. . […]
property-label: viability, T/C (%)

compound="O=C(c1cc(Cc2n[nH]c(=O)c3ccccc23)ccc1F)N1CCN(C(=O)C2CC2)CC1 + Nc1ccc(C#CCN(C(=O)Cc2ncc(C(F)(F)F)cc2C(F)(F)F)c2ccc(F)cc2)nn1" subject_of_test="695427-040-R-J1-PDC complex spheroid viability" unit_name=% reported_value=103
compound="CCc1cc2c(N3CCc4c(cc(Cn5ccnc5)cc4-c4cn(C)nc4C(F)(F)F)C3=O)cc(C)nc2c(OC)n1 + COC1C(OC(N)=O)C(O)C(Oc2ccc3c(O)c(NC(=O)c4ccc(O)c(CC=C(C)C)c4)c(=O)oc3c2C)OC1(C)C" subject_of_test="695427-040-R-J1-PDC complex spheroid viability" unit_name=% reported_value=109
compound="CC1COCCN1c1cc(C2(O)CC3CCC(C2)O3)c2cnn(-c3ccn[nH]3)c2n1 (stereo unspecified) + Nc1ccc(C#CCN(C(=O)Cc2ncc(C(F)(F)F)cc2C(F)(F)F)c2ccc(F)cc2)nn1" subject_of_test="695427-040-R-J1-PDC complex spheroid viability" unit_name=% reported_value=72.4
compound="COc1cccc2c1C(=O)c1c(O)c3c(c(O)c1C2=O)CC(O)(C(=O)CO)CC3OC1CC(N)C(O)C(C)O1 (stereo unspecified) + Cc1cccc(N(C)C(=O)C2C(O)CCN2c2nc(C)cc(C(F)(F)F)c2C#N)c1" subject_of_test="695427-040-R-J1-PDC complex spheroid viability" unit_name=% reported_value=72.1
compound="CC1COCCN1c1cc(C2(O)CC3CCC(C2)O3)c2cnn(-c3ccn[nH]3)c2n1 (stereo unspecified) + Cc1cccc(N(C)C(=O)C2C(O)CCN2c2nc(C)cc(C(F)(F)F)c2C#N)c1" subject_of_test="695427-040-R-J1-PDC complex spheroid viability" unit_name=% reported_value=67.1
compound="C=CC(=O)N1CCN(c2nc(=O)n(-c3c(C)ccnc3C(C)C)c3nc(-c4c(O)cccc4F)c(F)cc23)C(C)C1 (stereo unspecified) + Nc1ccc(C#CCN(C(=O)Cc2ncc(C(F)(F)F)cc2C(F)(F)F)c2ccc(F)cc2)nn1" subject_of_test="695427-040-R-J1-PDC complex spheroid viability" unit_name=% reported_value=105
compound="COc1cc2cc(C(=O)CCC(=O)O)sc2cc1OC + Nc1ccc(C#CCN(C(=O)Cc2ncc(C(F)(F)F)cc2C(F)(F)F)c2ccc(F)cc2)nn1" subject_of_test="695427-040-R-J1-PDC complex spheroid viability" unit_name=% reported_value=109
compound="COc1cccc(OCCCN)c1-c1cc(Nc2cnc(C#N)cn2)n[nH]1 + Cc1cccc(N(C)C(=O)C2C(O)CCN2c2nc(C)cc(C(F)(F)F)c2C#N)c1" subject_of_test="695427-040-R-J1-PDC complex spheroid viability" unit_name=% reported_value=52.5
compound="C#Cc1c(F)ccc2cc(O)cc(-c3ncc4c(N5CC6CCC(C5)N6)nc(OCC56CCCN5CC(F)C6)nc4c3F)c12 (stereo unspecified) + Cc1cccc(N(C)C(=O)C2C(O)CCN2c2nc(C)cc(C(F)(F)F)c2C#N)c1" subject_of_test="695427-040-R-J1-PDC complex spheroid viability" unit_name=% reported_value=104
compound="CCc1cc2c(N3CCc4c(cc(Cn5ccnc5)cc4-c4cn(C)nc4C(F)(F)F)C3=O)ccnc2c(OC)n1 + Cc1cccc(N(C)C(=O)C2C(O)CCN2c2nc(C)cc(C(F)(F)F)c2C#N)c1" subject_of_test="695427-040-R-J1-PDC complex spheroid viability" unit_name=% reported_value=113
compound="CC1COCCN1c1cc(C2(S(C)(=N)=O)CC2)nc(-c2ccnc3[nH]ccc23)n1 (stereo unspecified) + Nc1ccc(C#CCN(C(=O)Cc2ncc(C(F)(F)F)cc2C(F)(F)F)c2ccc(F)cc2)nn1" subject_of_test="695427-040-R-J1-PDC complex spheroid viability" unit_name=% reported_value=104
compound="O=c1[nH]cc(F)c(=O)[nH]1 + COC1C(OC(N)=O)C(O)C(Oc2ccc3c(O)c(NC(=O)c4ccc(O)c(CC=C(C)C)c4)c(=O)oc3c2C)OC1(C)C" subject_of_test="695427-040-R-J1-PDC complex spheroid viability" unit_name=% reported_value=99.5
compound="CCc1cc2c(N3CCc4c(cc(Cn5ccnc5)cc4-c4cn(C)nc4C(F)(F)F)C3=O)ccnc2c(OC)n1 + Nc1ccc(C#CCN(C(=O)Cc2ncc(C(F)(F)F)cc2C(F)(F)F)c2ccc(F)cc2)nn1" subject_of_test="695427-040-R-J1-PDC complex spheroid viability" unit_name=% reported_value=104
compound="CCCS(=O)(=O)Nc1ccc(F)c(C(=O)c2c[nH]c3ncc(-c4ccc(Cl)cc4)cc23)c1F + COC1C(OC(N)=O)C(O)C(Oc2ccc3c(O)c(NC(=O)c4ccc(O)c(CC=C(C)C)c4)c(=O)oc3c2C)OC1(C)C" subject_of_test="695427-040-R-J1-PDC complex spheroid viability" unit_name=% reported_value=105
compound="COc1cc(C2c3cc4c(cc3C(OC3OC5COC(C)OC5C(O)C3O)C3COC(=O)C23)OCO4)cc(OC)c1O (stereo unspecified) + Cc1cccc(N(C)C(=O)C2C(O)CCN2c2nc(C)cc(C(F)(F)F)c2C#N)c1" subject_of_test="695427-040-R-J1-PDC complex spheroid viability" unit_name=% reported_value=89.8
compound="COc1ccc([C@@H](O)c2cc(-c3ncnc4cc(N5CCOCC5)ccc34)c(F)cc2Cl)nn1 + Cc1cccc(N(C)C(=O)C2C(O)CCN2c2nc(C)cc(C(F)(F)F)c2C#N)c1" subject_of_test="695427-040-R-J1-PDC complex spheroid viability" unit_name=% reported_value=92.7
compound="Nc1ccn(C2OC(CO)C(O)C2(F)F)c(=O)n1 (stereo unspecified) + Nc1ccc(C#CCN(C(=O)Cc2ncc(C(F)(F)F)cc2C(F)(F)F)c2ccc(F)cc2)nn1" subject_of_test="695427-040-R-J1-PDC complex spheroid viability" unit_name=% reported_value=78
compound="O=C(c1cc(Cc2n[nH]c(=O)c3ccccc23)ccc1F)N1CCN(C(=O)C2CC2)CC1 + Cc1cccc(N(C)C(=O)C2C(O)CCN2c2nc(C)cc(C(F)(F)F)c2C#N)c1" subject_of_test="695427-040-R-J1-PDC complex spheroid viability" unit_name=% reported_value=93.1
compound="Nc1ccn(C2OC(CO)C(O)C2(F)F)c(=O)n1 (stereo unspecified) + COC1C(OC(N)=O)C(O)C(Oc2ccc3c(O)c(NC(=O)c4ccc(O)c(CC=C(C)C)c4)c(=O)oc3c2C)OC1(C)C" subject_of_test="695427-040-R-J1-PDC complex spheroid viability" unit_name=% reported_value=70.2
compound="CNCc1ccc(-c2[nH]c3cc(F)cc4c3c2CCNC4=O)cc1 + COC1C(OC(N)=O)C(O)C(Oc2ccc3c(O)c(NC(=O)c4ccc(O)c(CC=C(C)C)c4)c(=O)oc3c2C)OC1(C)C" subject_of_test="695427-040-R-J1-PDC complex spheroid viability" unit_name=% reported_value=96.8
compound="CCc1c2c(nc3ccc(O)cc13)-c1cc3c(c(=O)n1C2)COC(=O)[C@]3(O)CC + Nc1ccc(C#CCN(C(=O)Cc2ncc(C(F)(F)F)cc2C(F)(F)F)c2ccc(F)cc2)nn1" subject_of_test="695427-040-R-J1-PDC complex spheroid viability" unit_name=% reported_value=68.3
